System: 596521-263-R-J1-PDC complex spheroids, viability % of control
ASSAY: Anticancer human tumor 596521-263-R-J1-PDC patient-derived soft tissue sarcoma cell line growth inhibition [GQUAD]; active = viability on the fitted dose curve at most 10% of control; inactive = the rest
CONDITION SET: second compound 0.316 µM; first compound 0.316 µM
Labels: active, inactive

>  <COMPOUND>
CCc1c2c(nc3ccc(O)cc13)-c1cc3c(c(=O)n1C2)COC(=O)[C@]3(O)CC + CN(C)c1ccc(Nc2c3ccc(NC(=O)CCN4CCCC4)cc3nc3cc(NC(=O)CCN4CCCC4)ccc23)cc1

>  <ASSIGNED CATEGORY>
active

$$$$
>  <COMPOUND>
O=C(NO)c1cnc(N2CCN(S(=O)(=O)c3ccc4ccccc4c3)CC2)nc1 + CN(C)c1ccc(Nc2c3ccc(NC(=O)CCN4CCCC4)cc3nc3cc(NC(=O)CCN4CCCC4)ccc23)cc1

>  <ASSIGNED CATEGORY>
active

$$$$
>  <COMPOUND>
C#Cc1c(F)ccc2cc(O)cc(-c3ncc4c(N5CC6CCC(C5)N6)nc(OCC56CCCN5CC(F)C6)nc4c3F)c12 (stereo not drawn) + CN(C)c1ccc(Nc2c3ccc(NC(=O)CCN4CCCC4)cc3nc3cc(NC(=O)CCN4CCCC4)ccc23)cc1

>  <ASSIGNED CATEGORY>
inactive

$$$$

----------
Tested on: 596521-263-R-J1-PDC complex spheroids, viability % of control
ASSAY: Anticancer human tumor 596521-263-R-J1-PDC cell line growth inhibition [GQUAD];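 note: spheroids exposed to drugs for 7 days before viability reading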
CONDITION SET: curve of first compound; second compound 0.1 µM
Excerpt: DNA G-quadruplex Stabilizer Agents in Combinations in Complex Spheroids A high-throughput screen of multi-cell type tumor spheroids was designed to identify active combinations of DNA G-quadruplex stabilizer agents and targeted small molecules. […] Compounds. […] If the clinical Cmax for an agent had not been determined, the highest concentration tested was 10 microM. […]

>  <MOLECULE>
CCc1c2c(nc3ccc(O)cc13)-c1cc3c(c(=O)n1C2)COC(=O)[C@]3(O)CC + Cc1[nH]c2ccc(F)cc2c1-c1nc2c3cccnc3c3ncccc3c2[nH]1

>  <UOM>
nM

>  <LT GT EQ>
=

>  <IC50>
7.91

$$$$
>  <MOLECULE>
Nc1ccn(C2OC(CO)C(O)C2(F)F)c(=O)n1 (stereo unspecified) + Cc1[nH]c2ccc(F)cc2c1-c1nc2c3cccnc3c3ncccc3c2[nH]1

>  <UOM>
nM

>  <LT GT EQ>
=

>  <IC50>
58.1

$$$$
>  <MOLECULE>
CC1COCCN1c1cc(-c2ccnn2C)c2ccnc(-c3ccn[nH]3)c2n1 (stereo unspecified) + Cc1cnc(CNC(=O)c2c(=O)c3ccc(N4CCCN(C)CC4)nc3n3c2sc2ccccc23)cn1

>  <UOM>
nM

>  <LT GT EQ>
=

>  <IC50>
367

$$$$
>  <MOLECULE>
Cc1cccc(N(C)C(=O)C2C(O)CCN2c2nc(C)cc(C(F)(F)F)c2C#N)c1 (stereo unspecified) + Cc1cnc(CNC(=O)c2c(=O)c3ccc(N4CCCN(C)CC4)nc3n3c2sc2ccccc23)cn1

>  <UOM>
nM

>  <LT GT EQ>
>

>  <IC50>
10000

$$$$
>  <MOLECULE>
COc1ncnc(C2CC2)c1-c1ncc2cnn(Cc3ccc(-c4nc(C(F)(F)F)cn4C(C)C)cc3)c2n1 + Cc1cnc(CNC(=O)c2c(=O)c3ccc(N4CCCN(C)CC4)nc3n3c2sc2ccccc23)cn1

>  <UOM>
nM

>  <LT GT EQ>
>

>  <IC50>
10000

$$$$
>  <MOLECULE>
Cn1ncnc1[C@H]1c2n[nH]c(=O)c3cc(F)cc(c23)N[C@@H]1c1ccc(F)cc1 + Cc1[nH]c2ccc(F)cc2c1-c1nc2c3cccnc3c3ncccc3c2[nH]1

>  <UOM>
nM

>  <LT GT EQ>
>

>  <IC50>
316

$$$$

Source listed as PubChem BioAssay AID2060500.
